Where do these numbers come from? They come from patent US20250129140A1.

target: gH/gL of HCMV strain AD169 (on virus AD169 and on reporter virus AD169R) (human cytomegalovirus (strain AD169), UniProt P12824 24-743; P16832 31-278); assay: cell-based or functional assay
MEASURED_ATTRIBUTE: IC50(MRC5/NHDF) AD169R, virus neutralization (µg/mL)
Unit µg/mL implied. Number only.

Below, 3 binders whose answers are already recorded.
[[record]]
binder = "15G11 (antibody, V domains shown, also called 15G11 (ms); anti-gH mAb 15G11) VH: QVQLQESGPGLVKPSQTLSLTCTVSGGSISSGYYYWNWIRQHPGKGLECIGYIYYSGTTYYNPSLKSRLFISVDTSKNQFSLKLRSVTAADTAVYYCARGGLGAFDIWGQGTMVTVSS VL: EIVLTQSPGTLSLSPGERATLSCRASQSVSSSYLAWYQQKPGQAPRLLIYGASSRAPGIPDRFSGTGSGTDFTLTISRLEPEDFAVYYCQQYGISPLTFGGGTKVEIK"
observed = 0.51

[[record]]
binder = "9A12 (antibody, V domains shown, also called 9A12 (ms); anti-gH mAb 9A12) VH: EVQLVESGGVLVQPGGSLRLSCAASGFTFSSHEMNWVRQAPGKGLEWISYISSTGSTIYDADSVKGRFTISRDNAKNSLYLQMNSLRAEDTAVYYCARSSGWYRNYSYGMDVWGQGTTVTVSS VL: DIQMAQSPSSLSASVGDRVTITCRASQGIYNYLAWFQQKPGKAPKSLIYAASSLQTGVPSKFSGSGSGTDFTLTISNLQPEDFATYYCQQYNSFPRTFGQGTKVEIK"
observed = 1.52

[[record]]
binder = "13G1 (antibody, V domains shown, also called 13G1 (ms); anti-gH mAb 13G1) VH: QVTLKESGPVLVKPTETLTLTCTVSGFSLYNARMGVTWIRQPPGKALEWLAHIFSNDERSYTSSLKNRLTISKDTSKSQVVLTMTNMDPVDTATYYCARIDYSNYIGNWFDPWGQGTLVTVSS VL: DIQMTQSPSSLSASVGDRVTITCRASQSISNYLNWYQQKPGKAPKLLIYAASSLQGGVPSRFSGSGSGTDFTLTISSLQPEDFTTYYCQQSYSTPFTFGGGTKVEIK"
observed = 0.58


If you can, please state the reported IC50(MRC5/NHDF) AD169R, virus neutralization value of 14E1 (antibody, V domains shown, also called 14E1 (ms)) VH: QVQLVQSGAEVKKPGASVKVSCKASGYTFTSYSISWVRQAPGQGLEWMGWINTYNGNTNYAQRVQARVTMTTDTSTSTAYMELRSLRSDDTAVYYCARDHGFFFDYWGQGNLVTVSS VL: DIQLTQSPSFLSASVGDRVTITCWASQGISSYLAWYQQKPGKAPKLLIYAASTLQSGVPSRFSGSGSGTEFTLTISSLQPEDFATYYCQQLNSYPYTFGQGTQLEIK .
1.78
